biological target: Prostaglandin G/H synthase 2 (Homo sapiens)
Sequence (P35354 whole entry): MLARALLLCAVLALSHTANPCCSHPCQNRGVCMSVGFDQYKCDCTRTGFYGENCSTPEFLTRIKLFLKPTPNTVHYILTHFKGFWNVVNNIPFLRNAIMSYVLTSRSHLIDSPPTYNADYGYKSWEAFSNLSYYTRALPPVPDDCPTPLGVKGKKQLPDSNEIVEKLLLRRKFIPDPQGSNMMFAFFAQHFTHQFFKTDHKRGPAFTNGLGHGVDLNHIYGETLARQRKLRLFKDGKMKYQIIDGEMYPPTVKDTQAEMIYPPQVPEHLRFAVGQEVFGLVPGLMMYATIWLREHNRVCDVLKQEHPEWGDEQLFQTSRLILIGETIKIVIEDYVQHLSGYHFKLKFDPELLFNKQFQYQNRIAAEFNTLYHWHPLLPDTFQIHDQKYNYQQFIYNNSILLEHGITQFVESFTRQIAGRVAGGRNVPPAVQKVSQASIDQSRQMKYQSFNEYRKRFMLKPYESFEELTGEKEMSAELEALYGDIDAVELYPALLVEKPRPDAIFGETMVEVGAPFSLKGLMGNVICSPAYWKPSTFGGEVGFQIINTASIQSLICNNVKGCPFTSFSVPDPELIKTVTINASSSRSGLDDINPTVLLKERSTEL
pIC50: −log10 of the molar value.
PARAMETER: pIC50

COMPOUND	MEASURED_VALUE
COc1ccc2c(c1)c(CC(=O)OCC(=O)O)c(C)n2C(=O)c1ccc(Cl)cc1 [ACEMETACIN]	8.00

###

experiment: Plasma clearance in iv dosed C57BL/6J mouse; format: ADME, organism-based

CPD_SMILES	UNIT	clearance
COc1ccc2[nH]c3c(c2c1)CCN[C@]31CS[C@@H]2c3c(OC(C)=O)c(C)c4c(c3[C@@H](COC1=O)N1[C@@H]2[C@H]2c3c(cc(C)c(OC)c3O)C[C@@H]([C@@H]1O)N2C)OCO4	mL/min	183

###

assay: Apparent oral renal clearance in human; format: ADME; conditions: read-out: CL(app)

MOLECULE	CL renal [mL/min]
C=CCN1C[C@H](C(=O)N(CCCN(C)C)C(=O)NCC)C[C@@H]2c3cccc4[nH]cc(c34)C[C@H]21 [CABERGOLINE]	80

###

test: Half life in human plasma; assay type: ADME, cell-free

MOLECULE	UNIT	half-life
C=CC(=O)Nc1cc(Nc2nccc(-c3cn(C)c4ccccc34)n2)c(OC)cc1N(C)CCN(C)C [OSIMERTINIB]	min	2880
CO[C@@H]1[C@H](N(C)C(=O)c2ccccc2)C[C@H]2O[C@]1(C)n1c3ccccc3c3c4c(c5c6ccccc6n2c5c31)C(=O)NC4 [MIDOSTAURIN]	min	1260
Cc1[nH]c2ccccc2c1CCNCc1ccc(/C=C/C(=O)NO)cc1 [PANOBINOSTAT]	min	2220
CNCc1ccc(-c2[nH]c3cc(F)cc4c3c2CCNC4=O)cc1 [RUCAPARIB]	min	1020
CN1[C@@H]2CC[C@H]1C[C@@H](OC(=O)c1c[nH]c3ccccc13)C2 [TROPISETRON]	min	300
CCOC(=O)c1c(CSc2ccccc2)n(C)c2cc(Br)c(O)c(CN(C)C)c12 [UMIFENOVIR]	min	1020

###

assay: Binding affinity to MT1 receptor (unknown origin) assessed as inhibition constant; design: species or system Homo sapiens
PARAMETER: Ki (nM)

COMPOUND	UNIT	MEASURED_VALUE
COc1ccc2[nH]cc(CCNC(C)=O)c2c1 [MELATONIN]	nM	0.05
CN1CC(=O)N2[C@H](c3ccc4c(c3)OCO4)c3[nH]c4ccccc4c3C[C@@H]2C1=O	nM	1.2

###

assay: Elimination half life in human at 7.5 to 100 mg; format: ADME; details: dose 7.5-100 mg, read-out: beta t1/2 (converted)
Item-by-item account of half-life

COMPOUND	half-life, h
CC(C)C[C@H]1C(=O)N2CCC[C@H]2[C@]2(O)O[C@](NC(=O)[C@@H]3C=C4c5cccc6[nH]c(Br)c(c56)C[C@H]4N(C)C3)(C(C)C)C(=O)N12 [BROMOCRIPTINE]	4.85
CCN(CC)C(=O)N[C@H]1C=C2c3cccc4[nH]cc(c34)C[C@H]2N(C)C1 [LISURIDE]	1.8

###

test: Half life in human; format: ADME
PARAMETER: half-life (h)

MOLECULE	MEASURED_VALUE
CC(C(=O)O)c1ccc2c(c1)[nH]c1ccc(Cl)cc12 (stereo unspecified)	8

###

test: Half life in human; details: in vivo
Item-by-item account of log10(half-life)
PARAMETER: log10(half-life) (log10 of the value in h)

MOLECULE	log10(half-life)
O=C1NCCN1CCN1CCC(c2cn(-c3ccc(F)cc3)c3ccc(Cl)cc23)CC1	1.72
COc1ccccc1OCCNCC(O)COc1cccc2[nH]c3ccccc3c12 (stereo not given)	0.85
CC(C)NCC(O)COc1cccc2[nH]ccc12 (stereo not given)	0.48
CC(C)[C@@]1(NC(=O)[C@@H]2C[C@@H]3c4cccc5[nH]cc(c45)C[C@H]3N(C)C2)O[C@@]2(O)[C@@H]3CCCN3C(=O)[C@H](Cc3ccccc3)N2C1=O [DIHYDROERGOCRISTINE]	0.54
CC[C@@H](CO)NC(=O)[C@@H]1C=C2c3cccc4[nH]cc(c34)C[C@H]2N(C)C1	0.40
